System: HL-60(TB) leukemia
Experimental details: NCI-60 one-dose screen, 48 h
Cond: 10 µM unless noted
Compounds without any hit were thinned out: in the full panel of roughly 83,000, 20% have a hit. Active and inactive are the calls of the source. The calls were made as follows: active = growth percent below 10; inactive = the rest.
Hi there, use one of these labels in your reply, thanks! active, inactive

Sample answers from the record:
1) CC1=C(NCCN2CCCC2)C(=O)c2c(OCc3ccc(F)c(Cl)c3)cccc2C1=O; inactive
2) COc1cc(-c2nc3sccn3c2-c2ccnc(NCCNS(=O)(=O)c3ccc(Cl)cc3)n2)ccc1F; active
3) CC1(C)C(O)NC(Cl)=C(C#N)C1(C#N)C#N (centres undefined); inactive
4) CCOC(=O)C1OC1c1ccccc1 (centres undefined); inactive
5) O=C([C@@H](COCc1ccccc1)N1C(=O)[C@@H](N2C(=O)OC[C@@H]2c2ccccc2)[C@H]1/C=C/c1ccccc1)N1CCC(CCN2CCCCC2)CC1; inactive

Answer briefly: the call reported for Cc1cc(C)cc(NCCC#N)c1 in this assay.
inactive

Answer briefly: the call reported for COc1ccc2c3c(ccc2c1)C(=O)/C(=C\O)CC3 in this assay.
inactive

Answer briefly: the call reported for COc1ccc2cc(-c3ccc(C(=O)NN)c(C)n3)ccc2c1 in this assay.
inactive

----------
Tested on: NCI-H460 lung
Experimental details: NCI-60 one-dose screen, 48 h (100 = growth as untreated, 0 = no growth, -100 = all killed)
Cond: 10 µM unless noted
Compounds without any hit were thinned out: in the full panel of roughly 83,000, 20% have a hit.
Measurement name: growth (%)
# output: bare number, implied unit %

1) NC(=O)C(Cl)Cl; 100
2) COc1cc2c(cc1OC)CN(C)C(C)C2 (stereo not given); 106
3) CO[C@@H]1[C@H](OC(=O)NC(=O)CCl)CC[C@]2(CO2)[C@H]1[C@@]1(C)O[C@@H]1CC=C(C)C; 23.5

Please give the measured growth for this compound: CC(=O)N1N=C(c2ccccc2)CC1c1sc(N(CCCl)CCCl)nc1Cl (stereo not given)
96.2

Please give the measured growth for this compound: CC(C)(O)/C=C/C(=O)[C@](C)(O)[C@H]1[C@H](O)C[C@@]2(C)[C@@H]3CC=C4[C@@H](C=C(O)C(=O)C4(C)C)[C@]3(C)C(=O)C[C@]12C
-20.8

Please give the measured growth for this compound: COc1ccc(C(c2ccc(OC)cc2)C(Cl)(Cl)Cl)cc1
91.8

Please give the measured growth for this compound: CC(=O)[O][Hg][CH2]C1(C)COC(C)([CH2][Hg][O]C(C)=O)CO1 (stereo not given)
78.1

Please give the measured growth for this compound: CC1(C)CC(=O)CC(C)(C)N1N=O
114

Please give the measured growth for this compound: CCOC(=O)/C(C#N)=C/c1ccc(N(CCCl)CCCl)cc1
41.4

Please give the measured growth for this compound: O=C(C(=O)N1CCCC1)c1cn(CCCCCn2cc(C(=O)C(=O)N3CCCC3)c3ccccc32)c2ccccc12
91.3

----------
System: NCI-H23 lung
Experimental details: NCI-60 one-dose screen, 48 h (100 = growth as untreated, 0 = no growth, -100 = all killed)
Cond: 10 µM unless noted
The panel holds about 83,000 compounds, 20% with a hit somewhere; the sample as a whole holds those more often.
In this section we review reported growth values for a set of compounds.
# output: bare number, implied unit %

1) CC(=O)O[C@H]1CCC2(C)C(=CCC3C2CCC2(C)/C(=N/OC(=O)c4ccc(N(CCCl)CCCl)cc4)CCC32)C1 (stereo not given in full); 45.8
2) CCC(C)[C@H]1O[C@]2(C=C[C@@H]1C)C[C@@H]1C[C@@H](C/C=C(\C)[C@@H](OC3C[C@H](OC)C(O[C@H]4C[C@H](OC)[C@@H](O)[C@H](C)O4)[C@H](C)O3)[C@@H](C)/C=C/C=C3\CO[C@@H]4[C@H](O)C(C)=C[C@@H](C(=O)O1)[C@]34O)O2 (stereo not given in full); 5.82
3) COc1cc(/C=C\c2cc(OC)c(OC)c(OC)c2)cc(N/C=C\C(=O)c2ccc(OC(F)(F)F)cc2)c1OC; 26.2
4) O=[N+]([O-])c1cc([N+](=O)[O-])c(Cl)c(Cl)c1Cl; 43
5) O=[N+]([O-])c1ccc(F)c([N+](=O)[O-])c1F; 111

Please give the measured growth for this compound: CC(C)(C)NCC(O)c1ccccc1Cl (stereo not given)
25

Please give the measured growth for this compound: C[C@]12CC[C@H](OC3OC(O)C(O)C(O)C3O)C=C1CCC1C2CC[C@]2(C)[C@@H](c3ccc(=O)oc3)CC[C@]12O (stereo not given in full)
-68.9

Please give the measured growth for this compound: CC(C)Nc1ccc(Nc2ccccc2)cc1
31.3

Please give the measured growth for this compound: O=CN1N=C(c2ccc3c(c2)OCO3)CC1c1sc(N(CCCl)CCCl)nc1Cl (stereo not given)
101

Please give the measured growth for this compound: CC(=O)Nc1ccc(C=C2C(=O)NC(=O)NC2=O)cc1
101

Please give the measured growth for this compound: O=C(O)C1(Br)CC12c1ccccc1-c1ccccc12 (stereo not given)
97.1

Please give the measured growth for this compound: CN(Cc1cccnc1)N=O
96.3

Please give the measured growth for this compound: CCC[CH2][Sn]([CH2]CCC)([CH2]CCC)[O]C(=O)c1ccc(Cl)cc1Cl
-65.5

----------
System: HL-60(TB) leukemia
Experimental details: NCI-60 one-dose screen, 48 h
Cond: 10 µM unless noted
Compounds without any hit were thinned out: in the full panel of roughly 83,000, 20% have a hit. Activity calls are given as the source filed them. Rule for the calls: active = growth percent below 10; inactive = the rest.
Hi there, use one of these labels in your reply, thanks! active, inactive

Sample answers from the record:
1. CC(C)=CCC/C(C)=C/CC/C(C)=C/CC/C=C(\C)CC/C=C(\C)CCC(=O)Nc1ccn(C2OC(CO)C(O)C2(F)F)c(=O)n1 (stereo not given); active
2. COc1cccc2c(=O)c3c(sc12)c(NCCCN)nc1ccccc13; inactive

Now consider the entry below.
Answer briefly: the call reported for COc1cc2nc(-c3cccc4cccnc34)nc(NC3CCN(Cc4ccccc4)CC3)c2cc1OC in this assay.
active

----------
Test system: OVCAR-4 ovarian
Experimental details: NCI-60 one-dose screen, 48 h (100 = growth as untreated, 0 = no growth, -100 = all killed)
Cond: 10 µM unless noted
This is part of a sample that, as a whole, favours compounds with a hit. Of some 83,000 tested, about 20% had one in any assay.
Please use true (1) whenever growth is not below 90%, and false (0) whenever it is.

Sample answers from the record:
1. CN1CCN(C(=O)COc2ccc(/C=C3\CC4C5CC=C6CC(Cl)CCC6(C)C5CCC4(C)C3=O)cc2)CC1 (configuration not stated); false (0)
2. CC1(C)N=C(N)N=C(N)N1c1ccc(OCCCCNC(=O)c2ccc(S(=O)(=O)F)cc2)c(Cl)c1; true (1)
3. C[CH2][Pb]([CH2]C)([CH2]C)[O]C(=O)COc1ccccc1; false (0)

Does growth meet or surpass 90% for Cc1cccc(N=C2c3cc([N+](=O)[O-])ccc3-c3c2cc([N+](=O)[O-])cc3[N+](=O)[O-])c1 ?
false (0)

Does growth meet or surpass 90% for CC1CC=CCC12C(=O)NC(=S)NC2=O (configuration not stated) ?
true (1)

Does growth meet or surpass 90% for COC(=O)C1CC2c3ccccc3C1c1ccccc12 (configuration not stated) ?
true (1)

----------
System: HL-60(TB) leukemia
Experimental details: NCI-60 one-dose screen, 48 h (100 = growth as untreated, 0 = no growth, -100 = all killed)
Cond: 10 µM unless noted
This is part of a sample that, as a whole, favours compounds with a hit. Of some 83,000 tested, about 20% had one in any assay.
In this section we review reported growth values for a set of molecules.
# output: bare number, implied unit %

Known results for molecules:
1) COC(=O)[C@]12CCC(C)(C)C[C@H]1[C@H]1/C(=N/OCCc3nn[nH]n3)C[C@@H]3[C@@]4(C)CC[C@H](OC(C)=O)C(C)(C)[C@@H]4CC[C@@]3(C)[C@]1(C)CC2; 10.4
2) COc1ccc(NC(=O)CSc2nnc(-c3cc(-c4ccc(S(N)(=O)=O)cc4)nc4ccccc34)n2-c2ccccc2)cc1; 65.1
3) CCCCCCCCCCCCCCCCCN; 95.9

Please give the measured growth for this molecule: O=C1/C=C/[C@@H](O)[C@@H]2C[C@@H](O)C[C@H]2/C=C/CCC[C@H]([C@@H](O)CO)O1
101

Please give the measured growth for this molecule: CCCOC(=O)C(O)c1ccccc1 (centres undefined)
113

Please give the measured growth for this molecule: O=c1oc2ccc(F)cc2c(=O)n1-c1ccc(F)cc1F
16.7

----------
Test system: MCF7 breast
Experimental details: NCI-60 one-dose screen, 48 h
Cond: 10 µM unless noted
Method: Growth inhibition of the MCF7 human tumor cell line is measured as a screen for anti-cancer activity. Cells are grown in 96 well plates and exposed to the test compound for 48 hours. Compounds are tested at a single concentration, which is 10^-5 M for most compounds. The reported endpoint is percent growth (GI% or GIPRCNT), where numbers from 0 - 100% represent growth inhibition, and numbers from -100% - 0 represent cell death. For example, a value of 40 represents 60% growth inhibition. […]
This is part of a sample that, as a whole, favours compounds with a hit. Of some 83,000 tested, about 20% had one in any assay. Active and inactive are the calls of the source. Rule for the calls: active = growth percent below 10; inactive = the rest.
Hi there, use one of these labels in your reply, thanks! 1.0 for active, 0.0 for inactive

1. O=C(CCCN1CCC2(CC1)C(=O)NCN2c1ccc(F)cc1)c1ccc(F)cc1; 0.0

Answer briefly: the call reported for CC(=O)O[C@H]1CCC2(C)C(=CCC3C2CCC2(C)/C(=N/OC(=O)c4ccc(N(CCCl)CCCl)cc4)CCC32)C1 (some centres not stated) in this assay.
0.0

Answer briefly: the call reported for CCOC(=O)/C(C#N)=C/c1ccc(N(CCCl)CCCl)cc1 in this assay.
0.0

Answer briefly: the call reported for O=C(O)c1cccc(CCl)c1 in this assay.
0.0

Answer briefly: the call reported for Nc1ccc([N+](=O)[O-])c2c1Oc1ccccc1O2 in this assay.
0.0

Answer briefly: the call reported for O=C(NCCNC(=O)c1ccc([As](O)O)cc1)c1ccc([As](O)O)cc1 in this assay.
0.0
